# assay.text: in vivo
# applied.conditions: male, SD (Sprague-Dawley), rat, po, 5 mg/kg, Cmax, plasma Letrozole
# Protocol: Quantification was performed using the selective MRM mode on a short LC column using a fast gradient. Blood samples were collected at time 0, 30 min and 1, 3, 6, 24, 30 and 48 hrs. […] Chromatography was performed on a Phenomenex Luna C8(2) 30×2 mm (5 μm) using gradient elution at 0.7 mL/min. […] Samples were analyzed in selective MRM mode using LC-MS/MS. Peak area ratios for calibration curves and quantification of samples were calculated using Analyst software version 1.6.2. […]
measured.attribute: Cmax (µM)
Give just the numeric value; µM need not be written.

Query: Cmax; subject: N#Cc1ccc(C(c2ccc(C#N)cc2)n2cncn2)cc1
Response: 4.24

====

# assay.text: in vivo
# applied.conditions: male, SD (Sprague-Dawley), rat, po, 50 mg/kg, Cmax, plasma Raloxifene
measured.attribute: Cmax (nM)
Give just the numeric value; nM need not be written.

Query: Cmax; subject: O=C(c1ccc(OCCN2CCCCC2)cc1)c1c(-c2ccc(O)cc2)sc2cc(O)ccc12 [Raloxifene]
Response: 190

====

# assay.text: in vivo
# applied.conditions: male, SD (Sprague-Dawley), rat, po, 5 mg/kg, Tmax, plasma Letrozole
measured.attribute: Tmax

Query: Tmax; subject: N#Cc1ccc(C(c2ccc(C#N)cc2)n2cncn2)cc1 [Letrozole]
Response: 4.5 h
